Source: patent US20260365670A1

Target: EGFR Exon19Del (Homo sapiens, UniProt P00533, DEL746-750)
Construct: purchased Carna Bio
Sequence (P00533 with tags, fused parts or gaps DEL746-750 limits assumed): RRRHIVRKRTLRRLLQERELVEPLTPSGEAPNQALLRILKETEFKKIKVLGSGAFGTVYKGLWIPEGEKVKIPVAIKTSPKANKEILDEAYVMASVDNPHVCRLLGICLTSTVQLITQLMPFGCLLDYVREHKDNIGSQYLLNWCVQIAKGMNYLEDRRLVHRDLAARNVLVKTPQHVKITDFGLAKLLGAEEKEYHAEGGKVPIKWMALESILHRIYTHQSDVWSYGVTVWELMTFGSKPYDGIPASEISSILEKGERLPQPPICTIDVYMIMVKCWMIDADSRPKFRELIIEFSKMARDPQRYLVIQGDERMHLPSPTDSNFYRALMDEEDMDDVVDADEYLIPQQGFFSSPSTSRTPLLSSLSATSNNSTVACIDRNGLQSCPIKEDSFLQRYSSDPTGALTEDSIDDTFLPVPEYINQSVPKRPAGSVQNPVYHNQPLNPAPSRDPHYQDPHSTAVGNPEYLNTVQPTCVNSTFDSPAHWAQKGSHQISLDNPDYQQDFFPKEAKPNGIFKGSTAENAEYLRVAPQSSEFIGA
Test: Inhibition of EGFR Exon19Del biochemical enzymatic activity (HTRF)
Conditions: EGFR Del19, 1 mM ATP, 1 h, room temperature, read-out: IC50 @Del19
pIC50: −log10 of the molar value.
Rule: Condition met for pIC50 not less than 7, Condition not met for anything less.

[Q] Is it the case that CC(C)N1CCN(c2ccc3nc4n(c3c2)C23CCC(CN(CCOc5c(cnn5C)-c5cc(cn(C)c5=O)C(=O)N4)C2)C3)CC1 (single isomer, unassigned) [Example A108B] has pIC50 reaching or exceeding 7?
[A] Condition met

[Q] Has "C[C@@H]1CCCOc2ccccc2-c2cc(cn(C)c2=O)C(=O)Nc2nc3ccc(N4CCN(C)CC4)cc3n2C1" a recorded pIC50 greater than or equal to 7?
[A] Condition met

[Q] Textbook exercise: given the entry "Cn1ncc2c1OCCN1CC3CCC(CC3)(C1)n1c(nc3ccc(N4CCN(C5CC5)CC4)cc31)NC(=O)c1cc-2c(=O)n(C)c1" , state whether its pIC50 is greater than or equal to 7.
[A] Condition met

[Q] Item CN1CCC2(C1)CN(c1ccc3nc4n(c3c1)C13CCC(CN(CCOc5c(cnn5C)-c5cc(cn(C)c5=O)C(=O)N4)C1)C3)C2 (single isomer, unassigned) [Example A78A] with pIC50 of 7 or above?
[A] Condition not met

[Q] Reported pIC50 at or above 7? "C[C@@H]1CCCOc2c(cnn2C)-c2cc(cn(C)c2=O)C(=O)Nc2nc3ccc(Br)cc3n2C1"
[A] Condition not met

[Q] Check this compound for pIC50 at or above 7: CN1CCCC12CN(c1ccc3nc4n(c3c1)C13CCC(CN(CCOc5c(cnn5C)-c5cc(cn(C)c5=O)C(=O)N4)C1)C3)C2 (single isomer, unassigned) [Example A76A]
[A] Condition not met

###

Parameter IC50: see the listing below.
Biological target: EGFR Exon19Del/T790M (Homo sapiens, UniProt P00533, DEL746-750/T790M)
Construct: purchased Carna Bio
Sequence (P00533 with tags, fused parts or gaps DEL746-750/T790M limits assumed): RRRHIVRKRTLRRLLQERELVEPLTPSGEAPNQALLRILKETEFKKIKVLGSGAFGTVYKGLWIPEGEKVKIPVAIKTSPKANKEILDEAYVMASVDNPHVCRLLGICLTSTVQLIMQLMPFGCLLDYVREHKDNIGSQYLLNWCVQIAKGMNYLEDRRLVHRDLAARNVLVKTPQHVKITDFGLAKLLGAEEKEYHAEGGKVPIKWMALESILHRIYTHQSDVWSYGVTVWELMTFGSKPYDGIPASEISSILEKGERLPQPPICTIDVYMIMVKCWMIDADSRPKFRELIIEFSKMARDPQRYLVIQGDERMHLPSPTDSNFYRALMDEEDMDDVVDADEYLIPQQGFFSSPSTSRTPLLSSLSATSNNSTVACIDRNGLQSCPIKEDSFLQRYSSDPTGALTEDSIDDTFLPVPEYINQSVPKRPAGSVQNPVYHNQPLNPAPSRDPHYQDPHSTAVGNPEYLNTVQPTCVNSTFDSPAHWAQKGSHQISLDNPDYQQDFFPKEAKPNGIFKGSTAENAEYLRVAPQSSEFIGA
Experiment: Inhibition of EGFR Exon19Del/T790M biochemical enzymatic activity (HTRF)
Settings: IC50 @Del19-T790M, EGFR Exon19Del/T790M, 1 mM ATP, 1 h at room temperature
Answer with a number only, understood to be in nM.

As a guide, the following entries are already answered.
COMPOUND	MEAS_VALUE
Cc1cc2cc(n1)-c1cnn(C)c1OCCCCCn1c(nc3ccc4c(c31)CCN(CCN(C)C)C4)NC2=O [Example B23]	3.8
Cc1cc2cc(n1)-c1cnn(C)c1OCCN1CC3CCC(C3)(C1)n1c(nc3ccc(N4CCC(N(C)C)CC4)cc31)NC2=O (single isomer, unassigned) [Example B40B]	4.7
Cc1cc2cc(n1)-c1cnn(C)c1OCCN1CC3CCC(C3)(C1)n1c(nc3ccc(N4CCC(N(C)C)CC4)cc31)NC2=O (single isomer, unassigned) [Example B40A]	430

[Q] Quick one: IC50 for Cc1cc2cc(n1)-c1cnn(C)c1OCCN1CC3CCC(CC3)(C1)n1c(nc3ccc(N4CCC(N(C)C)CC4)cc31)NC2=O [Example B27] ?
[A] 8.3

###

Molecular target: EGFR (C797S L858R) (Homo sapiens, UniProt P00533, C797S/L858R)
Construct: purchased signalchem
Sequence (P00533 25-1210 C797S/L858R): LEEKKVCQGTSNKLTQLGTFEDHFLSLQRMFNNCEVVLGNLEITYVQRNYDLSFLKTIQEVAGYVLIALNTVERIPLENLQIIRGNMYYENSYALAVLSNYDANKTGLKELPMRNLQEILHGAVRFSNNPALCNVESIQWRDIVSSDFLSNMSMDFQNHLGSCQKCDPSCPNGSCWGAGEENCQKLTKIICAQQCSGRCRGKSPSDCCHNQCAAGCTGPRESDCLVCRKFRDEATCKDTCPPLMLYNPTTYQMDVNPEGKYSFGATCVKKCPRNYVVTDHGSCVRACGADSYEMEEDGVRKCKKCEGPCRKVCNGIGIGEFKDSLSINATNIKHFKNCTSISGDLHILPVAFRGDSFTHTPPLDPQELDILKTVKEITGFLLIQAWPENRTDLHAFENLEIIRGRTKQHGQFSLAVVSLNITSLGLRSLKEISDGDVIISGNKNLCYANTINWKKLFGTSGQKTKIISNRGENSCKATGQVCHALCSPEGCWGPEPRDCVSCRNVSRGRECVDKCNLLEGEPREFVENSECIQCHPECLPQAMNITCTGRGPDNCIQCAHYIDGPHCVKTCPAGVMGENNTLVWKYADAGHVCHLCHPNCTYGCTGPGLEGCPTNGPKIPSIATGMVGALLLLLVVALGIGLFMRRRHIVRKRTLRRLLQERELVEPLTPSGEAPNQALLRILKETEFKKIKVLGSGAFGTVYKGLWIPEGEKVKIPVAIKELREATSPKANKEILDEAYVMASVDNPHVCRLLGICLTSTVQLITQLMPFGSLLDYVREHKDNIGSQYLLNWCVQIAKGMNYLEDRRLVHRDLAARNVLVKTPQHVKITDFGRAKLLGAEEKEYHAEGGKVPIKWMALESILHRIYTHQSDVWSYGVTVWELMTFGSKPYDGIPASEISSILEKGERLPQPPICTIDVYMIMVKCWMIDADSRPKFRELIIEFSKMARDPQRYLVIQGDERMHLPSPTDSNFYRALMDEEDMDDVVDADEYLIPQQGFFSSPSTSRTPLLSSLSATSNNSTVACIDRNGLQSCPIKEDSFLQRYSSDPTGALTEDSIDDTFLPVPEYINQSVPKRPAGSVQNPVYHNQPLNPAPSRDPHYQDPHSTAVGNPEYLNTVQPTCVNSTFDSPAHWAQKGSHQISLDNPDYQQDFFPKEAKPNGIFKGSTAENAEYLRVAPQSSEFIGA
Experiment: Inhibition of EGFR (C797S L858R) biochemical enzymatic activity (HTRF)
Conditions: EGFR L858-C797S, 1 mM ATP, 1 h, room temperature, read-out: IC50 (nM) @L858-C797S
MEASURE_NAME: log10 of IC50 (log10 of the value in nM)
log10 IC50, nM

Solved entries:
COMPOUND	log10 of IC50
CN1CCC12CCN(c1ccc3nc4n(c3c1)C13CCC(CN(CCOc5c(cnn5C)-c5cc(cn(C)c5=O)C(=O)N4)C1)C3)CC2 (single isomer, unassigned) [Example A67B]	0.08
Cc1cc2cc(n1)-c1cnn(C)c1OCCN1CC3CCC(CC3)(C1)n1c(nc3ccccc31)NC2=O	2.05
C[C@@H]1CCCOc2c(cnn2C)-c2cc(cn(C)c2=O)C(=O)Nc2nc3ccc(N(C)CCN(C)C)cc3n2C1	1.15
CN(C)C1CN(c2ccc3nc4n(c3c2)C23CCC(CN(CCOc5c(cnn5C)-c5cc(cn(C)c5=O)C(=O)N4)C2)C3)CC1F (single isomer, unassigned) [Example A84A]	3.07
C[C@@H]1CCCOc2c(cnn2C)-c2cc(cn(C)c2=O)C(=O)Nc2nc3ccc(N4CCN(C(=O)OC(C)(C)C)CC4)cc3n2C1	2.95

[Q] Any idea what log10 of IC50 was measured for "Cn1ncc2c1OCCN1CC3CCC(CC3)(C1)n1c(nc3ccccc31)NC(=O)c1cc-2c(=O)n(C)c1" ?
[A] 3.25

[Q] Query: log10 of IC50; subject: "CN1CCN(c2ccc3nc4n(c3c2)C(C)(C)CCCCOc2c(cnn2C)-c2cc(cn(C)c2=O)C(=O)N4)CC1"
[A] 1.78

[Q] Suppose we examine the compound "CN1CCN(c2cc3c(cc2F)nc2n3C34CCC(CC3)CN(CCOc3c(cnn3C)-c3cc(cn(C)c3=O)C(=O)N2)C4)CC1" ; what log10 of IC50 value has been reported?
[A] 2.05

[Q] I would be grateful if you could share the reported log10 of IC50 for Cn1ncc2c1OCCN1CC3CCC(C3)(C1)n1c(nc3ccc(N4CCOCC4)cc31)NC(=O)c1cc-2c(=O)n(C)c1 (single isomer, unassigned) [Example A62B] .
[A] 1.28

[Q] Which log10 of IC50 value is on record for CN1CC2CC1CN2c1ccc2nc3n(c2c1)C12CCC(CN(CCOc4c(cnn4C)-c4cc(cn(C)c4=O)C(=O)N3)C1)C2 (single isomer, unassigned) [Example A105B] ?
[A] 0.58

[Q] GET /values?readout=log10 of IC50&item= "C[C@@H]1CCCOc2c(cnn2C)-c2cc(cn(C)c2=O)C(=O)Nc2nc3ccc(N4CCNCC4)c(Cl)c3n2C1"
[A] 1.79

[Q] What log10 of IC50 value was documented for this compound, CCN1CCN(c2ccc3nc4n(c3c2)C23CCC(CN(CCOc5c(cnn5C)-c5cc(cn(C)c5=O)C(=O)N4)C2)C3)CC1 (single isomer, unassigned) [Example A107A] ?
[A] 3.02

[Q] log10 of IC50 for CN(C)CCN(C)c1ccc2nc3n(c2c1)C12CCC(CN(CCOc4c(cnn4C)-c4cc(cn(C)c4=O)C(=O)N3)C1)C2 (single isomer, unassigned) [Example A85A] ?
[A] 3.11

[Q] Give its log10 of IC50 value. Item: Cn1ncc2c1OCCN1CC3CCC(C3)(C1)n1c(nc3cc(Br)ccc31)NC(=O)c1cc-2c(=O)n(C)c1 (stereo not drawn)
[A] 3.67

[Q] Please report the recorded log10 of IC50 for "C[C@@H]1CCCOc2ccc(F)cc2-c2cc(cn(C)c2=O)C(=O)Nc2nc3ccc(N4CCN(C)CC4)cc3n2C1" .
[A] 0.69

[Q] Please look up its log10 of IC50: CN1CCC2(CCN(c3ccc4nc5n(c4c3)C34CCC(CN(CCOc6c(cnn6C)-c6cc(cn(C)c6=O)C(=O)N5)C3)C4)C2)C1 (single isomer, unassigned) [Example A81B]
[A] 0.49

[Q] Could you share which log10 of IC50 value was measured for CN1CCN(c2ccc3c(c2)nc2n3C34CCC(CN(CCOc5c(cnn5C)-c5cc(cn(C)c5=O)C(=O)N2)C3)C4)CC1 (stereo not drawn) [Example A60B] ?
[A] 1.81

[Q] Fill in: log10 of IC50 of Cn1ncc2c1OCCN1CC3CCC(C3)(C1)n1c(nc3cc(F)c(N4CCOCC4)cc31)NC(=O)c1cc-2c(=O)n(C)c1 (single isomer, unassigned) [Example A118B] is ___
[A] 1.57

[Q] Field request: log10 of IC50 | item: "CCn1ncc2c1OCCC[C@@H](C)Cn1c(nc3ccc(N4CCN(C)CC4)cc31)NC(=O)c1cc-2c(=O)n(C)c1"
[A] 1.18

###

Below, each entry is listed with its recorded IC50.
Molecular target: EGFR[T790M/C797S/d746-750] (Homo sapiens, UniProt P00533, C797S/DEL746-750/T790M)
Construct: purchased Carna Bio
Sequence (P00533 with tags, fused parts or gaps DEL746-750/T790M/C797S limits assumed): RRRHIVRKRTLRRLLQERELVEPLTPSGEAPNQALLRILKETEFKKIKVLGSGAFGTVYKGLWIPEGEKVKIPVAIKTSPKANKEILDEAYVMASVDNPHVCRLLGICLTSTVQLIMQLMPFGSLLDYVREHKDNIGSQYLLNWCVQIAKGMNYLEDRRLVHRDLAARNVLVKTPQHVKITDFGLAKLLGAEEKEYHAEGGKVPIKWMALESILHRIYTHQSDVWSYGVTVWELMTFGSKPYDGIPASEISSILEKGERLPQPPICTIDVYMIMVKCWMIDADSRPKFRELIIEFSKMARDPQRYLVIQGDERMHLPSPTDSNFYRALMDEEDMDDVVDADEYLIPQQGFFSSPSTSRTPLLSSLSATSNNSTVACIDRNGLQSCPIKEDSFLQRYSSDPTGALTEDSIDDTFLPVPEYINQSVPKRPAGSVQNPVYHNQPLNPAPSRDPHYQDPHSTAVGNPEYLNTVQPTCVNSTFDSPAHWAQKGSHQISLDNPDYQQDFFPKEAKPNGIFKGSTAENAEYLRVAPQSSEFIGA
Assay: Inhibition of EGFR[T790M/C797S/d746-750] biochemical enzymatic activity (HTRF)
Settings: EGFR[T790M/C797S/d746-750], 1 mM ATP, 1 h at room temperature, read-out: IC50 @T790M - C797S - Del19
Numbers only here, please. The scale is nM.

Recorded results for 6 compounds are shown here.
COMPOUND	ASSAYED_SYSTEM	UNIT_DESCRIPTOR	IC50
Cc1cc2cc(n1)-c1cnn(C)c1OCCN1CC3CCC(CC3)(C1)n1c(nc3ccc(N4CC5CCN(C)C5C4)cc31)NC2=O (stereo not drawn)	EGFR[T790M/C797S/d746-750] (Homo sapiens, UniProt P00533, C797S/DEL746-750/T790M)	nM	6
Cc1cc2cc(n1)-c1cnn(C)c1OCCN1CC3CCC(C3)(C1)n1c(nc3ccc(N4CCN(C(C)C)CC4)cc31)NC2=O (single isomer, unassigned) [Example B57A]	EGFR[T790M/C797S/d746-750] (Homo sapiens, UniProt P00533, C797S/DEL746-750/T790M)	nM	792
Cc1cc2cc(n1)-c1cnn(C)c1OCCN1CCOCC(C1)n1c(nc3ccccc31)NC2=O (single isomer, unassigned) [Example B7A]	EGFR[T790M/C797S/d746-750] (Homo sapiens, UniProt P00533, C797S/DEL746-750/T790M)	nM	62
Cc1cc2cc(n1)-c1cnn(C)c1OCCN1CCOCC(C1)n1c(nc3ccccc31)NC2=O (stereo not drawn) [Example B7B]	EGFR[T790M/C797S/d746-750] (Homo sapiens, UniProt P00533, C797S/DEL746-750/T790M)	nM	17
Cc1cc2cc(n1)-c1cnn(C)c1OCCN1CC3CCC(CC3)(C1)n1c(nc3ccc(N(C)CCCN(C)C)cc31)NC2=O	EGFR[T790M/C797S/d746-750] (Homo sapiens, UniProt P00533, C797S/DEL746-750/T790M)	nM	3
Cc1cc2cc(n1)-c1cnn(C)c1OCCN1CC3CCC(CC3)(C1)n1c(nc3ccc(N4CCC5(CC4)CCN5C)cc31)NC2=O	EGFR[T790M/C797S/d746-750] (Homo sapiens, UniProt P00533, C797S/DEL746-750/T790M)	nM	4.9

[Q] Item: Cc1cc2cc(n1)-c1cnn(C)c1OCCN1CC3CCC(C3)(C1)n1c(nc3ccc(N(C)CCCN(C)C)cc31)NC2=O (single isomer, unassigned) [Example B45B] Test system: EGFR[T790M/C797S/d746-750] (Homo sapiens, UniProt P00533, C797S/DEL746-750/T790M) Read-out: IC50 Value: ?
[A] 1.7

[Q] Reported IC50 for EGFR[T790M/C797S/d746-750] (Homo sapiens, UniProt P00533, C797S/DEL746-750/T790M), given Cc1cc2cc(n1)-c1cnn(C)c1OCCN1CC3CCC(C3)(C1)n1c(nc3ccc(N4CCN(C)CC4)cc31)NC2=O (stereo not drawn) [Example B9B] ?
[A] 1.4

[Q] Field: IC50 (EGFR[T790M/C797S/d746-750] (Homo sapiens, UniProt P00533, C797S/DEL746-750/T790M)). Entry: Cc1cc2cc(n1)-c1cnn(C)c1OCCN1CC3CCC(C3)(C1)n1c(nc3ccc(N4CCN(C5COC5)CC4)cc31)NC2=O (single isomer, unassigned) [Example B58B]
[A] 3.2
